Source listed as paper PMC11714206.

target: MAL^TIR (Homo sapiens, UniProt P58753); construct: MAL (residues 79–221); 6xHis; made in house; host or cells: E. coli BL21 (DE3); test: T‐Surf phage library (P8 and P3) selection against MAL^TIR, four rounds, NGS read counts; type: binding; conditions: P3_MAL pool: P3 T-Surf phage library, 4th round of selection against MAL TIR, share of NGS reads
Sequence (P58753 79-221): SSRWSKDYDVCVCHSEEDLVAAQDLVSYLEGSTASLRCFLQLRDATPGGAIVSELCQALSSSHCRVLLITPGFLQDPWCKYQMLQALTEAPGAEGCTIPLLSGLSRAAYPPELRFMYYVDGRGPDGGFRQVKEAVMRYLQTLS
Heads up, the class ranges for Population are low = under 0.004%, moderate = from 0.004% up to 0.005%, high = 0.005% and over

The following substances have reported results that may help.
LNVESWRQALEKAGKL: low
ARLPAICIVIWCSVAX: low
YAFTGHLHSYLVQRGV: low
YAFTGHLHRYLV*RGV: high
DQWRNALTAAANLSGW: high

(Q) Category of SIFREGLWRLLELSKK , please.
(A) high

(Q) For YAFTGHPHRYLVQRGV , which Population bin applies?
(A) high

(Q) Sort into band: RRTFLSHLQHHFASKG
(A) high

(Q) Classify this substance: NQCRNALTAAANLSGW
(A) low

(Q) Could you place NQWRNALTAAANLIGW in its proper category? Many thanks.
(A) moderate

(Q) Category of YAFTGHLHRYLVQCGV , please.
(A) low

(Q) Please indicate the class for FAFTGHLHRYLVQRGV based on its Population.
(A) low

(Q) Looking at NRWRNALTAAANLSGW , which class would you pick?
(A) low

(Q) Form field 'band' for KMQKWKDALYEAANLSGW
(A) high

(Q) # bin lookup: classify RLLKWKDALHQFHSWV by its Population
(A) high

(Q) Band assignment needed for RGFREGLWRLLELSKK please.
(A) high

(Q) Category of YAFTGHLHRSLVQRGV , please.
(A) moderate

(Q) Would you mind sorting NQWRNALTAAANLS into the appropriate category?
(A) high

(Q) Record SSFHEGLWRLLELSKK — which class?
(A) moderate

----------
target: MyD88^TIR (Homo sapiens); construct: MyD88 (residues 148–296); 6xHis; made in house; host or cells: E. coli BL21 (DE3); assay: T‐Surf phage library (P8 and P3) selection against MyD88^TIR, four rounds, NGS read counts; assay type: binding; details: P3 library, selection against MyD88, rank before grouping
Sequence (Q99836 148-296): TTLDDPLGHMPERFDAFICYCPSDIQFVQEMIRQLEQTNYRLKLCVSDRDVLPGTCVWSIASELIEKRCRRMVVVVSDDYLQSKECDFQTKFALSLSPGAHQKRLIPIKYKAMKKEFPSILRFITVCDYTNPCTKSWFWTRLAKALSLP
Give measured P3_MyD88 Rank (before) for each item. Keep answers brief.
Answers are plain numbers.

Please review the following examples before continuing.
LKCGEPYFWSKLRYSI: 2406
PEKANGGENAFFNNIV: 2705
KWLWDKLIYARSRNPH: 3584
SELRVVDDGSVSPPNL: 3040
DHHLDLPWGKAKKPEILG: 1999

Consider the following items and state reported P3_MyD88 Rank (before) for each.
1. SEIYATSPWALDVLVL
2. LKVESWRQSREKAGKL

(A)
1: 2953; 2: 2480

----------
target: MAL^TIR (Homo sapiens); construct: MAL (residues 79–221); 6xHis; made in house; host or cells: E. coli BL21 (DE3); test: T‐Surf phage library (P8 and P3) selection against MAL^TIR, four rounds, NGS read counts; assay type: binding; conditions: P8_MAL pool: P8 T-Surf phage library, 4th round of selection against MAL TIR, share of NGS reads
Experimental readout: Population
In your response, the unit should come after the numeric value.

Below: 5 substances and their reported Population.
WSYERLVSLILRDTKV: 0.0034%
WFYERLVSLILRDTKE: 0.00309%
LFFWESLKQLLRSGGR: 0.0034%
AFFWAQLKNVLGNPTM: 0.00278%
RNFVAYLFQALANIGI: 0.00371%

Go through the items and report each one's Population.
1. YFLHFLLFSRLETEYI
2. WFYERLVGLILRDTKV
3. RNFVAYLFQELANKGI
4. WFYERLESLILRDTKV
5. AFFWAQLKSVLGNRTM

(A)
["0.00278%", "0.0034%", "0.00463%", "0.00278%", "0.00309%"]
